# target_entity: hTRPM8 (Homo sapiens, UniProt Q7Z2W7)
# Sequence (Q7Z2W7 whole entry): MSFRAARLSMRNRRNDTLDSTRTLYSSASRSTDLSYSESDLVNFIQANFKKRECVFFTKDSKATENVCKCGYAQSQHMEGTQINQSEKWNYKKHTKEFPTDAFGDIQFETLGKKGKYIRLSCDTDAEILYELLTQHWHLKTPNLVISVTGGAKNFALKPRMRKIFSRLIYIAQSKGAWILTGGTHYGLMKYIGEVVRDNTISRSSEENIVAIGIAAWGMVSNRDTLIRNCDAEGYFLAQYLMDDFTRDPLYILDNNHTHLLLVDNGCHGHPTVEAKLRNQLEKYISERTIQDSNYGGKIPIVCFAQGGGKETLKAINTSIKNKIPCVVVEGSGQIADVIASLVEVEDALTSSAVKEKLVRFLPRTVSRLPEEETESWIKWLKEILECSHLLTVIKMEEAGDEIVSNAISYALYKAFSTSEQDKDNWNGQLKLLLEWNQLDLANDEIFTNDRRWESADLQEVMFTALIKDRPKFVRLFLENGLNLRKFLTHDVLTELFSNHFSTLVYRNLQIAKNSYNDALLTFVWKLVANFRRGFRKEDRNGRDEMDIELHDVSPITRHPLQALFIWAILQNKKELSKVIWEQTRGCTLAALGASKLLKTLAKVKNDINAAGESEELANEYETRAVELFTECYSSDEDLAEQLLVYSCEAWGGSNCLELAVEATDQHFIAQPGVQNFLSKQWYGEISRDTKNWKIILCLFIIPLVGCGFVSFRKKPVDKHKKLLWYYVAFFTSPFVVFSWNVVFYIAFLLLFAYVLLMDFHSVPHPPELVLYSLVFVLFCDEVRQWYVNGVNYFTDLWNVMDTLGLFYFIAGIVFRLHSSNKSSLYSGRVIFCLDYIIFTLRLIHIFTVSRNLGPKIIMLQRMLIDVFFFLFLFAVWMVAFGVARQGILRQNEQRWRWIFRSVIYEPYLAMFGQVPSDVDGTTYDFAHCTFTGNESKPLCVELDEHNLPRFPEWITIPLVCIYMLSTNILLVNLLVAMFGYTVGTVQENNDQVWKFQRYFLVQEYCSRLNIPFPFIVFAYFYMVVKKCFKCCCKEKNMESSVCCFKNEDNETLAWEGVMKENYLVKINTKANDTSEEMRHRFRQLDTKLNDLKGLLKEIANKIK
# protocol_details: Assay on TRPM8 modulators: calcium imaging (Fluo-4, Flexstation) in HEK293 cell line stably expressing hTRPM8
# assay_setup: HEK293 cells stably expressing hTRPM8; calcium influx, sigmoidal dose-response fit
# Description: A HEK293 cell line stably expressing hTRPM8 was generated according to Klein et al., (Chem. Senses 36: 649-658, 2011) and receptor activation was monitored by calcium imaging in a Flexstation. […] On day 2, agonists were evaluated via calcium imaging using Fluo-4. […] The cells were then washed five times with 100 μL assay buffer and then calcium influx to serial dilutions of inventive compounds were measured in a Flexstation 3 (Molecular Devices). […]
metric_name: EC50

Below, 5 molecules whose answers are already recorded.
# molecule, reported
rows = [
    ("CCC(=O)N1CCCCC1c1nc(-c2ccc(C)cc2)cn1C(=O)CC (stereo not shown)", "1000 to 35000 nM"),
    ("CSC(C)C(=O)N1CCCCC1c1nc(-c2ccc(C)cc2)cn1C(=O)c1ccccc1 (stereo not shown)", "< 50 nM"),
    ("Cc1ccc(OCC(=O)N(Cc2cccs2)c2ccn(C(=O)C(C)C)n2)cc1", "< 50 nM"),
    ("CCCCCC(=O)n1cc(-c2ccc(C)cc2)nc1C1CCCCN1C(=O)C(C)SC (stereo not shown)", "50 to 300 nM"),
    ("CCCCCCCCCCCC(=O)n1cc(-c2ccc(C)cc2)nc1C1CCCCN1C(=O)C(C)SC (stereo not shown)", "50 to 300 nM"),
]

Which EC50 value is on record for CSC(C)C(=O)N1CCCCC1c1nc(-c2ccc(C)cc2)cn1C(=O)C(C)C (stereo not shown) ?
< 50 nM

Try CCC(C)C(=O)N1CCCCC1c1nc(-c2ccc(C)cc2)cn1C(=O)[C@@H]1C[C@H](C)CC[C@H]1C(C)C (stereo partly shown) next.
1000 to 35000 nM

Try CCC(C)C(=O)N1CCCCC1c1nc(-c2ccc(C)cc2)cn1C(=O)C(C)C (stereo not shown) next.
50 to 300 nM

Try CSC(C)C(=O)N1CCCCC1c1nc(-c2ccc(C)cc2)cn1C(C)=O (stereo not shown) next.
50 to 300 nM

Try CSC(C)C(=O)N1CCCCC1c1nc(-c2ccc(C)cc2)cn1C(=O)C(C)SC (stereo not shown) next.
< 50 nM

---

Quick reference: pEC50 of the listed items.
# target_entity: hTRPM8 (Homo sapiens)
# Construct: expressed in transfected cells
# protocol_details: Assay on TRPM8 modulators: calcium imaging (Fluo-4, Flexstation) in HEK293 cell line stably expressing hTRPM8
# Type: cell-based
# assay_setup: HEK293 cells stably expressing hTRPM8; calcium influx, sigmoidal dose-response fit
pEC50: −log10 of the molar value.

Below, 8 compounds whose answers are already recorded.
# compound, pEC50
data = [
    ("CCC(C)C(=O)N1CCCCC1c1nc(-c2ccc(C)cc2)cn1C(=O)COC (stereo not drawn)", "> 7.30"),
    ("CCC(C)C(=O)N1CCCCC1c1nc(-c2ccc(C)cc2)cn1C(=O)COCc1ccccc1 (stereo not drawn)", "> 7.30"),
    ("Cc1ccc(-c2cn(C(=O)C(C)C)c(C3CCCCN3C(=O)C(C)C)n2)cc1 (stereo not drawn)", "6.52 to 7.30"),
    ("CCC(C)C(=O)N1CCCCC1c1nc(-c2ccc(C)cc2)cn1C(C)=O (stereo not drawn)", "> 7.30"),
    ("CCCCCCCCCCCC(=O)n1cc(-c2ccc(C)cc2)nc1C1CCCCN1C(=O)C(C)CC (stereo not drawn)", "6.00 to 6.52"),
    ("CC(=O)n1ccc(N(Cc2cccs2)C(=O)COc2ccc(C)cc2)n1", "> 7.30"),
    ("CSC(C)C(=O)N1CCCCC1c1nc(-c2ccc(C)cc2)cn1C(=O)[C@@H]1C[C@H](C)CC[C@H]1C(C)C (stereo partly drawn)", "6.00 to 6.52"),
    ("CCCCCC(=O)n1cc(-c2ccc(C)cc2)nc1C1CCCCN1C(=O)C(C)CC (stereo not drawn)", "> 7.30"),
]

Query compound follows.
Item Cc1ccc(OCC(=O)N(Cc2cccs2)c2ccn(C(=O)c3ccccc3)n2)cc1 with hTRPM8 (Homo sapiens) - pEC50?
> 7.30

Origin of the recorded values: patent US12678386B2
